src = patent US20050020576A1

# System: formalin-induced flinching
# protocolSummary: animal or person
# Assay type: in vivo, male Sprague-Dawley rats
# experimentalConditions: rat, in vivo
Decision: Late Phase Formalin (i. paw), % @ 300 >= 90 % @ 300 yields True, all other cases yield False.

Observe how each entry below is paired with its result.
{"molecule": "CN(C(=O)Cc1ccc(C(F)(F)F)cc1NS(C)(=O)=O)[C@H](CN1CC[C@H](O)C1)c1ccccc1 [Example 126]", "qualitativeLabel": "True"}
{"molecule": "CNS(=O)(=O)c1ccccc1CC(=O)N(C)C(CN1CCCC1)c1ccccc1F (racemic) [Example 147]", "qualitativeLabel": "False"}
{"molecule": "COc1cc(CC(=O)N(C)[C@H](CN2CCCC2)c2ccccc2)c(S(=O)(=O)N2CCCC2)c(OC)c1OC [Example 143]", "qualitativeLabel": "True"}
{"molecule": "CN(C(=O)Cc1ccccc1NS(C)(=O)=O)[C@H](CN1CC[C@H](O)C1)c1ccccc1 [Example 125]", "qualitativeLabel": "False"}
{"molecule": "CN(C(=O)Cc1ccc(O)c(NS(C)(=O)=O)c1)[C@H](CN1CCCC1)c1ccccc1 [Example 124]", "qualitativeLabel": "False"}
{"molecule": "CN(C(=O)Cc1cc2c(cc1S(=O)(=O)N(C)C)OCO2)[C@H](CN1CC[C@H](O)C1)c1ccccc1 [Example 133]", "qualitativeLabel": "True"}

API: above_or_equal(metric=Late Phase Formalin (i. paw), % @ 300, cutoff=90 % @ 300) for item COc1ccc(CC(=O)N(C)[C@H](CN2CCCC2)c2ccccc2)cc1NS(C)(=O)=O [Example 122]
False

API: above_or_equal(metric=Late Phase Formalin (i. paw), % @ 300, cutoff=90 % @ 300) for item COc1ccc(C(CN2CCCC2)N(C)C(=O)Cc2ccccc2NS(C)(=O)=O)cc1 (racemic) [Example 128]
False
